The measurements presented in this section are drawn from PubChem BioAssay AID652047.

# Lookup of reported activity change, negative = inhibition keyed by entry
Assay: growth inhibition of P. falciparum 3D7, dose response, 3D7 strain, red blood cells, SYBR Green, cherry-picked (AID 652047);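 note: 0% = untreated neutral control wells and -100% = mefloquine positive control wells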
Conditions: P. falciparum 3D7 in RBCs, SYBR Green DNA fluorescence; at 50 µM (top of the series)
MEASURED PARAMETER: activity change, negative = inhibition (%)

[[record]]
compound = "COc1ccc(N(C(=O)c2ccncc2)S(=O)(=O)c2ccc(F)cc2)cc1"
measured_parameter = "activity change, negative = inhibition"
measured = 38.9

[[record]]
compound = "COc1ccc(N(C)S(=O)(=O)c2ccc(Cl)c(C(=O)NNC(=O)c3ccccc3O)c2)cc1"
measured_parameter = "activity change, negative = inhibition"
measured = -2.22

[[record]]
compound = "CC1CCN(c2ccc3c(c2)S(=O)(=O)c2ccccc2C3=O)CC1"
measured_parameter = "activity change, negative = inhibition"
measured = -3.18

[[record]]
compound = "Nc1nc2sc3c(c2c(=O)s1)CCCC3"
measured_parameter = "activity change, negative = inhibition"
measured = -14.6

[[record]]
compound = "COC(=O)C1=NN(C(=O)c2cccc(Br)c2)C(O)(c2ccc(Cl)cc2)C1 (stereo not given)"
measured_parameter = "activity change, negative = inhibition"
measured = -78.6

